- Target under test: Plasmodium falciparum lysyl t-RNA synthetase (Pf-KRS1) (Plasmodium falciparum, UniProt Q8IDJ8)
- Construct: Pf KRS1-; made in house; host or cells: E. coli BL21 (DE3)
- Sequence (Q8IDJ8 entry or part of it, looked up, natural form): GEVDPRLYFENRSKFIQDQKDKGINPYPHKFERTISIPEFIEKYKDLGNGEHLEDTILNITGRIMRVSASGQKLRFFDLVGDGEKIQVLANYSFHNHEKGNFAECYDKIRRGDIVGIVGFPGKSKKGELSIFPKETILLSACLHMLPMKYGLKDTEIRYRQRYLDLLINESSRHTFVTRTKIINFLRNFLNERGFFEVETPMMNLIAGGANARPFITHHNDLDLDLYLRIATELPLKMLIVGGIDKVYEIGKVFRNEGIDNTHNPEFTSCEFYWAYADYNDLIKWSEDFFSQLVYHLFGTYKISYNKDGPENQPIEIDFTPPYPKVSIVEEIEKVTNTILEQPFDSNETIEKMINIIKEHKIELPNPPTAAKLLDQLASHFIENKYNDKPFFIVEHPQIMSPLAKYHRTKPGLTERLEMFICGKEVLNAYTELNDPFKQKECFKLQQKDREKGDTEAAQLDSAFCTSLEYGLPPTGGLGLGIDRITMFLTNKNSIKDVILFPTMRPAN
- Assay: Pf-KRS1 inhibition biochemical assay (Kinase-Glo, ATP depletion)
- Assay conditions: read-out: Pf-KRS pIC50 (converted)
Lab note: compare IC50 with 200 nM, writing condition met if less and condition not met if equal or more.

>>> class_label("NC(=O)c1ccc2oc(C(=O)NCC3CCCCC3)cc(=O)c2c1")
"condition not met"
>>> class_label("C[C@H](NC(=O)c1cc(=O)c2cc(F)ccc2o1)C1CCCCC1 [Example 49A]")
"condition met"
>>> class_label("O=C(NCC1(O)CCC(F)(F)CC1)c1cc(=O)c2cc(O)ccc2o1")
"condition met"
>>> class_label("CCOC(=O)CC1(CNC(=O)c2cc(=O)c3cc(F)ccc3o2)CCCCC1 [Example 57K]")
"condition not met"
>>> class_label("O=C(NCC1CCC(F)(F)CC1)c1cc(=O)c2cc(F)cc(O)c2o1")
"condition met"
>>> class_label("CS(=O)(=O)Nc1cccc2c(=O)cc(C(=O)NCC3CCCCC3)oc12")
"condition met"
>>> class_label("Cc1c(C(=O)NCC2CCCCC2)oc2ccccc2c1=O")
"condition not met"

Provenance of the data: patent US11485720B2
